Measured values drawn from BindingDB's records for doi:10.1006/jmbi.2000.3966 for this set.

Entries and their pKi values follow.
- ASSAY SYSTEM: Serine protease 1 (Bos taurus, UniProt P00760)
- Sequence (P00760 whole entry): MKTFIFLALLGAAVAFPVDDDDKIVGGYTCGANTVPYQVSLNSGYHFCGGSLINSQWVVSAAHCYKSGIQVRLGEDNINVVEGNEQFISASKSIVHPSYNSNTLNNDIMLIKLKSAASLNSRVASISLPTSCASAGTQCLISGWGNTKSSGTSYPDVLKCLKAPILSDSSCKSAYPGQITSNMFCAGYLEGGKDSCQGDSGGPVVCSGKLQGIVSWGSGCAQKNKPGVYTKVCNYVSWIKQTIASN
pKi: −log10 of the molar value.

ITEM SMILES: N=C(N)NC(=O)c1nc(Cl)c(N)nc1N
pKi: 4.49
//
ITEM SMILES: NC(N)=Nc1ccc(CNC(=O)NC23CC4CC(CC(C4)C2)C3)cc1
pKi: 4.34
//
ITEM SMILES: CC(C)c1cc(C(C)C)c(S(=O)(=O)N[C@@H](Cc2cccc(C(=N)N)c2)C(=O)N2CCN(C(=O)CCN)CC2)c(C(C)C)c1
pKi: 6.22
